- experimental.protocol: optical density shifts of acrAB sulA E. coli – strain DRC41, OD650, 48 h, E. coli filamentation inducer project, primary screen (AID 1152);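 also: E. coli MC1000 strain DRC41 lacking acrAB efflux pump and sulA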
- condition.context: higher = more signal, called active from +8 up or from −8 down
The source made the active and inactive calls.

compound | z-score
COC(=O)C(CC#Cc1ccc2c(c1)[C@]1(C(=O)N2)[C@H](C(=O)N2CCCCCCC2)[C@H]2C(=O)O[C@H](c3ccccc3)[C@H](c3ccccc3)N2[C@@H]1c1ccccc1OCCO)C(=O)OC | -0.984 (inactive)
O=C1O[C@@H](c2ccccc2)[C@@H](c2ccccc2)N2[C@@H](c3ccc(O)cc3)[C@]3(C(=O)Nc4ccccc43)[C@@H](C(=O)NC[C@H](O)c3ccccc3)[C@H]12 | 2.14 (inactive)
C=C(CCCC)/C(=C/C[C@H](OC(C)=O)c1ccc(CO)o1)c1cc(C(=O)OC)ccc1OC | 0.302 (inactive)
CCCCC(=C=CC[C@H](O)c1ccccc1OCCO)C[C@H](O)c1cc(Cl)cc(Cl)c1O | -0.0999 (inactive)
C=CCOC(=O)[C@H]1[C@@H]2C(=O)O[C@@H](c3ccccc3)[C@@H](c3ccccc3)N2[C@@H](c2ccc(OCCOC(=O)[C@@H]3C[C@@H]4C(=O)NCC(=O)N4[C@@H]3c3ccc(O)cc3)cc2)[C@]12C(=O)Nc1ccc(I)cc12 | -0.481 (inactive)
CC(=O)NCCCC[C@@H]1NC(=O)[C@@H]2C[C@H](C(=O)NCCCCCC[N+](C)(C)C)[C@H](c3cccc(OCCO)c3)N2C1=O | 0.0924 (inactive)
COCCOC(=O)N1C(=O)[C@@]2(c3cc(C#CC4(O)CCCCCC4)ccc31)[C@H](c1ccc(O)cc1)N1[C@H](c3ccccc3)[C@H](c3ccccc3)OC(=O)[C@H]1[C@@H]2C(=O)N1CCc2cc(OC)c(OC)cc2C1 | 1.23 (inactive)
CN(C)CCCC[C@@H]1NC(=O)[C@@H]2C[C@H](C(=O)NCCCCCCN)[C@H](c3ccc(O)cc3)N2C1=O | -0.337 (inactive)
CCOC(=O)C=Cc1cccc(OC)c1O | -0.572 (inactive)
O[C@@H](Cc1ccccc1)[C@@H](/C=C/c1ccccc1)NCc1ccccc1Br | 0.955 (inactive)
C=CCC(OC(C)=O)[C@@H]1[C@@H](N(Cc2cc3ccccc3o2)C(=O)c2ccc(C)cc2)c2cc(OCCCO)ccc2N1C(=O)c1ccc(-c2ccccc2)cc1 (some centres undefined) | 1.33 (inactive)
COC(=O)[C@@]1(Cc2ccccc2)[C@H]2c3cc(C(=O)N(C)C)n(Cc4ccccc4)c3C[C@H]2CN1C(=O)c1ccccc1 | -1.39 (inactive)
CC[C@@H]1C=C(C(=O)O)[C@H](c2ccc(C(C)C)cc2)N1S(=O)(=O)c1ccc(C)cc1 | -0.646 (inactive)
O=C(NCC(F)(F)F)[C@@H]1c2ccccc2C(=O)N(Cc2ccccc2)[C@H]1c1ccc(CO)cc1 | 0.467 (inactive)

---

- experimental.protocol: probe aLAP1 signal on lysate-treated microarray – cell lysate, small-molecule microarray, COS7 lysate, primary screen (AID 1124);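 also: lysate comes from COS7 cells expressing LAP1 and is applied at 0.3 µg/mL; score merges spot fluorescence near 667 nm with signal-to-noise over triplicate slides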
- condition.context: probe aLAP1, fluorescence, higher = more signal
result.type: composite z-score

compound | assay.value
CC(=O)N1Cc2ccccc2C[C@@]2(N=C(c3ccc(OCCCO)cc3)O[C@H]2c2ccccc2)C1=O | 1.24
CN(C)CCCC[C@@H]1NC(=O)[C@H]2C[C@@H](C(=O)NCCCCCNC(=O)CS)[C@@H](c3ccc(O)cc3)N2C1=O | -0.733
O=C1O[C@@H](c2ccccc2)[C@@H](c2ccccc2)N2[C@@H](c3ccc(O)cc3)[C@]3(C(=O)Nc4ccccc43)[C@@H](C(=O)N3CCCCCCC3)[C@H]12 | 1.14
CN(C)CCCN1C(=O)[C@@]2(c3ccc([N+](=O)[O-])cc3)CC(=O)N(C3CCCCC3)[C@@H]2c2ccc(CO)cc21 | -0.233
COc1ccc([Si](C)(C)[C@H]2[C@H](CCO)O[C@@]3(C(=O)N(Cc4cccc(N5C(=O)c6cccc7cccc5c67)c4)c4ccccc43)[C@@H]2C)cc1 | 1.42
COC(=O)[C@@]1(Cc2ccc(OC)cc2)[C@H]2c3cc(C(=O)N(C)C)n(CCSCCO)c3C[C@H]2CN1C(=O)c1ccccc1 | -0.0747
CCN(CC)c1ccc(N2CC=CC34O[C@@H]5C=CCOC(=O)[C@@H]5[C@H]3C(=O)N(CCCCCO)[C@@H]4C2=O)cc1 (some centres not stated) | 1.04

---

# Lookup of reported z-score keyed by entry
- experimental.protocol: growth of efflux-deficient E. coli DRC39 – strain DRC39, OD650, 48 h, E. coli filamentation inducers, primary screen (AID 1179);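 also: screen aims at cell division blockers that make cells filament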
- condition.context: E. coli DRC39 delta-acrAB growth, higher = more signal, called active from +8 up or from −8 down

compound | z-score
C=C(CCCC)C(=O)CC[C@H](OC(C)=O)c1ccc(CO)o1 | -0.968
O=C1NC(=O)C2C1C=CC(C(O)c1cccs1)N2Nc1ccccn1 (centres undefined) | 0.0691
Cc1ccc(S[C@]2(C(=O)NCCCN(C)C)CC(=O)N(Cc3ccccc3)[C@@H]2c2ccc(CO)cc2)cc1 | -0.435
CCOC(=O)C[C@H]1[C@H](OC(=O)c2cc3ccccc3oc2=O)[C@@H](NC(=O)c2ccc3ccccc3c2)c2cc(OCCCO)ccc2N1C(=O)c1ccccc1 | -1.03
Cc1ccc(S(=O)(=O)N2CC(C(=O)O)=CCC2c2ccccc2)cc1 (centres undefined) | -1.15
O=C1OCCC/C=C\[C@H]2OC34C=CCN(CCN5CCOCC5)C(=O)[C@H]3N(CCO)C(=O)[C@@H]4C12 (some centres undefined) | -1.09
Cc1ccccc1/C=C/C=O | 1.45
CC(C)(C)OC(=O)CC[C@@]1(C(N)=O)N=C(c2ccc(OCCCO)cc2)O[C@@H]1c1ccccc1N=[N+]=[N-] | 0.529
COCCn1c(C(=O)N2CCCC2)cc2c1C[C@H]1CN(C(=O)c3ccccc3)[C@@](Cc3ccc(OC)cc3)(C(=O)OC)[C@@H]21 | 0.763

---

- target.of.assay: Albumin (Bos taurus)
- experimental.protocol: compounds binding labelled BSA control protein – biochemical, small-molecule microarray, Alexa647 label, 635/667 nm fluorescence, artefact control for SMM control protein annotation, profiling panel (AID 1118);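 also: score merges 667 nm emission intensity and signal-to-noise per printed compound spot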
- condition.context: BSA-A647 binding, fluorescence 635 nm, higher = more signal
result.type: composite z-score

compound.string | target.of.assay | assay.value
C=CC[C@@]1(C(=O)NCCN2CCOCC2)N=C(c2ccc(OCCCO)cc2)O[C@@H]1c1ccccc1CN=[N+]=[N-] | Albumin (Bos taurus) | 0.831
C=CCOC(=O)[C@@H]1[C@H]2C(=O)O[C@H](c3ccccc3)[C@H](c3ccccc3)N2[C@H](c2ccc(OCCOC(=O)[C@H]3C[C@H]4C(=O)N[C@@H](CC(C)C)C(=O)N4[C@H]3c3cccc(OCCO)c3)cc2)[C@@]12C(=O)Nc1ccc(I)cc12 | Albumin (Bos taurus) | -0.413
CCCC[C@@H]1C[C@H]1[C@@H](NC(=O)c1ccccc1)c1ccccc1 | Albumin (Bos taurus) | 0.0945
COC(=O)[C@@]1(Cc2ccc(F)cc2)[C@H]2c3cc(C(=O)N4CCCC4)n(CCc4ccc(OC)c(Br)c4)c3C[C@H]2CN1C(=O)c1ccccc1 | Albumin (Bos taurus) | 0.843
CC(C)C[C@@H]1NC(=O)[C@@H]2C[C@H](C(=O)NCCCCN(C)C)[C@H](c3ccc(O)cc3)N2C1=O | Albumin (Bos taurus) | -0.0836
COCCOC(=O)N1C(=O)[C@@]2(c3cc(C#Cc4ccc(OC)cc4)ccc31)[C@H](c1ccc(O)cc1)N1[C@H](c3ccccc3)[C@H](c3ccccc3)OC(=O)[C@H]1[C@@H]2C(=O)N1CCN(c2ncccn2)CC1 | Albumin (Bos taurus) | 0.303

---

- experimental.protocol: JC-1 mitochondrial signal, unstimulated myeloma cells – cell-based, JC-1 fluorescence, RPMI8226, 24 h, 100 nL compound, profiling panel (AID 1169); also: test concentration not given here
- condition.context: JC-1 mitochondrial potential fluorescence, higher = more signal
# Lookup of reported z-score keyed by entry
result.type: z-score

compound | assay.value
NC(=O)NCC#Cc1ccc2c(c1)[C@]1(C(=O)N2)[C@H](c2ccccc2OCCO)N2[C@H](c3ccccc3)[C@H](c3ccccc3)OC(=O)[C@H]2[C@@H]1C(=O)N1CCCCCCC1 | -0.498
O=C1O[C@@H](c2ccccc2)[C@@H](c2ccccc2)N2[C@@H](c3ccc(O)cc3)[C@]3(C(=O)Nc4ccccc43)[C@@H](C(=O)N3CCCCCCC3)[C@H]12 | -0.659
CCOC(=O)C1=CC[C@@H](c2cccc(Cl)c2)N(S(=O)(=O)c2ccc(C)cc2)[C@H]1c1ccc(C#N)cc1 | -0.62
COc1cc(NN2C(C(O)c3ccccc3)C=CC3C(=O)N(c4ccccc4)C(=O)C32)cc(OC)c1OC (stereo not drawn) | 0.179
CCOC1=C2C(c3ccc(C)cc3)N(S(=O)(=O)c3ccc(C)cc3)CC2n2c(=O)n(-c3ccccc3)c(=O)n2C1 (stereo not drawn) | 0.709
O=c1cccc(-c2ccccc2)o1 | 0.826
C=CCOC(=O)[C@H]1[C@@H]2C(=O)O[C@@H](c3ccccc3)[C@@H](c3ccccc3)N2[C@@H](c2ccc(OCCOC(=O)[C@H]3C[C@H]4C(=O)N[C@@H](CCCC[N+](C)(C)C)C(=O)N4[C@H]3c3ccc(O)cc3)cc2)[C@]12C(=O)Nc1ccccc12 | -0.456
O=C(NCC(O)CO)[C@@]1(Cc2ccccc2)COC(c2ccc(OCCCO)cc2)=N1 (stereo partly drawn) | -0.805
C=C(CCCC)C(=O)CC[C@H](OC(=O)c1ccccc1-c1ccccc1C(=O)O)c1ccc(CO)o1 | -0.658
COCCn1c(C(=O)N(C)C)cc2c1C[C@H]1CN(C(=O)c3ccccc3)[C@@](Cc3ccc(F)cc3)(C(=O)OC)[C@@H]21 | 0.172
O=C(NCc1ccccc1)[C@@H]1c2ccccc2C(=O)N(Cc2cc(F)cc(C(F)(F)F)c2)[C@H]1c1ccc(CO)cc1 | 0.79
COCC1=C([C@H](O)CCc2ccccc2)[C@H](CO)[C@@H]2C(=O)N(Cc3ccccc3)C(=O)[C@@H]2C1 | 0.469
O=C(N1CCCCC1)[C@]1(CCS(=O)(=O)c2ccccc2)N=C(c2ccc(OCCCO)cc2)O[C@@H]1c1ccccc1 | -1.1
C[N+](C)(C)CCCCNC(=O)[C@H]1C[C@H]2C(=O)N3CCC[C@H]3C(=O)N2[C@H]1c1ccc(O)cc1 | 0.0553
COCCOC(=O)N1C(=O)[C@@]2(c3cc(C#CCCO)ccc31)[C@H](C(=O)NC[C@H](O)c1ccccc1)[C@H]1C(=O)O[C@H](c3ccccc3)[C@H](c3ccccc3)N1[C@@H]2c1ccc(OCCO)cc1 | -0.8
CC(c1ccccc1)C(O)C1C=CC2C(=O)N(c3ccccc3)C(=O)C2N1Nc1ccccc1F (stereo not drawn) | 0.387
[N-]=[N+]=NCc1ccccc1C[C@]1(C(=O)NCC(O)CO)COC(c2ccc(OCCCO)cc2)=N1 (stereo partly drawn) | -1.26
O=C1C2C=CC(C(O)c3ccc(Br)cc3)N(n3cnnc3)C2C(=O)N1Cc1ccccc1 (stereo not drawn) | -0.212
C=C(C(=O)CC[C@@H](OC(C)=O)c1ccc(OCCO)cc1)C(C)C | 0.0885
[N-]=[N+]=Nc1ccccc1C[C@]1(C(=O)N2CCCCC2)N=C(c2ccc(OCCCO)cc2)O[C@H]1c1ccccc1N=[N+]=[N-] | -1.09
COC(=O)[C@@]1(Cc2ccc(OC)cc2)[C@H]2c3cc(C(=O)N(C)C)n(CCSCCO)c3C[C@H]2CN1C(=O)c1ccccc1 | 0.179
Cn1c2c(c3ccccc31)C(=O)C1NC2C=CC1(C)C(=O)OCc1ccccc1 (stereo not drawn) | -0.0327
C=CCNC(=O)[C@H]1[C@@H]2C(=O)O[C@@H](c3ccccc3)[C@@H](c3ccccc3)N2[C@@H](c2ccc(OCCO)cc2)[C@]12C(=O)N(C(=O)OCCOC)c1ccc(C#CC3(O)CCCCCC3)cc12 | -0.774
CN(C)CCCC[C@@H]1NC(=O)[C@@H]2C[C@H](C(=O)NCCCCCCN)[C@H](c3ccc(O)cc3)N2C1=O | 0.576
Cc1ccc(N2C(=O)c3ccccc3[C@](C)(C(=O)NCCN3CCOCC3)[C@@H]2c2ccc(CO)cc2)nc1 | -0.628
Cc1ccc([C@H]2C(C(=O)O)=C[C@@H](C(C)C)N2S(=O)(=O)c2ccc(C)cc2)cc1 | 0.59
COCCOC(=O)N1C(=O)[C@@]2(c3cc(C#Cc4ccc(OC)cc4)ccc31)[C@H](c1ccc(O)cc1)N1[C@H](c3ccccc3)[C@H](c3ccccc3)OC(=O)[C@H]1[C@@H]2C(=O)N1CCN(c2ncccn2)CC1 | -0.525
COc1ccc([Si](C)(C)[C@@H]2[C@@H](CCn3cc([C@H](O)c4ccccc4)nn3)O[C@]3(C(=O)N(C)c4ccccc43)[C@H]2C)cc1 | -0.866
